test system: 24-hydroxylase (24Ohase) gene promoter; experiment: In vitro transcription assay, 24-hydroxylase gene promoter luciferase reporter in ROS 17/2.8 (bone) cells; format: cell-based; conditions: ROS 17/2.8 cells, 24-hydroxylase promoter-luciferase, 16 hours; FIG. 3; read-out: EC50, transcriptional activity in bone cells
pEC50: −log10 of the molar value.

>  <compound>
C=C1[C@H](O)CC(=C/C=C2\CCC[C@]3(C)[C@@H](/C(C)=C/CCC(C)(C)O)CC[C@@H]23)C[C@H]1O [Vit III 20-22E]

>  <pEC50>
10.70

$$$$

###

Target: full-length recombinant rat vitamin D receptor (Rattus norvegicus)
Construct: Full-length recombinant rat receptor was expressed in E. coli BL21 (DE3) Codon Plus RIL cells; histidine tag (C)
Sequence (P13053 whole entry): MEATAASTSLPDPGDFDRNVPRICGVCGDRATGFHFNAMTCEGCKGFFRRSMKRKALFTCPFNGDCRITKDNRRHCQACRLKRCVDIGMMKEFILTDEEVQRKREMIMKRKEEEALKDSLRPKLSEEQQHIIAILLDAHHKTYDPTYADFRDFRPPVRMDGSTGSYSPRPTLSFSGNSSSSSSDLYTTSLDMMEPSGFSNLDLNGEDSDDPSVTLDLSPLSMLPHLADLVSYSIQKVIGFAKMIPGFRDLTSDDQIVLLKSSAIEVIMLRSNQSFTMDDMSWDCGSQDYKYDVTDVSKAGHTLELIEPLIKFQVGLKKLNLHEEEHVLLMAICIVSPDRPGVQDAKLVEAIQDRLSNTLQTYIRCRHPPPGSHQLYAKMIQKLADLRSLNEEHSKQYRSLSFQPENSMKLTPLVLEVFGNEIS
Assay: Vitamin D receptor competitive binding with [3H]-1,25(OH)2D3
Conditions: full-length recombinant rat VDR; FIG. 1; read-out: Ki, competition with [3H]-1,25(OH)2D3 for binding to the vitamin D receptor
Protocol: Full-length recombinant rat receptor was expressed in E. coli BL21 (DE3) Codon Plus RIL cells and purified to homogeneity using two different column chromatography systems. […] Radiolabeled and unlabeled ligands were added to 100 mcl of the diluted protein at a final ethanol concentration of ≦10%, mixed and incubated overnight on ice to reach binding equilibrium. […] Total binding was determined from the tubes containing only radiolabeled ligand.
pKi: −log10 of the molar value.
measure: pKi

>  <molecule>
C=C1[C@H](O)CC(=C/C=C2\CCC[C@]3(C)[C@@H](/C(C)=C/CCC(C)(C)O)CC[C@@H]23)C[C@H]1O [Vit III 20-22E]

>  <measure>
pKi

>  <reportedValue>
10.00

$$$$
